system: Hepatitis C virus; experiment: Antiviral activity against Hepatitis C virus subtype 1b infected in Huh-7 cells transfected with HCV subgenomic replicon for NS5B polymerase assessed as inhibition of viral replication measured upto 96 hrs by luciferase reporter gene assay; assay type: functional, organism-based, Hepacivirus hominis; conditions: Huh-7, 96 h
// returns false (0) unless IC50 is strictly below 5 nM, in which case true (1)

- smiles.entry: "CC(C)(C)C#Cc1cc(N(C(=O)[C@H]2CC[C@H](C)CC2)[C@H]2CC[C@H](O)CC2)c(C(=O)O)s1"
  test.system: "Hepatitis C virus"
  assigned.class: "false (0)"
- smiles.entry: "C[C@H](C(=O)N(C)C)N(c1cc(C#CC(C)(C)C)sc1C(=O)O)C(=O)[C@H]1CC[C@H](C)CC1"
  test.system: "Hepatitis C virus"
  assigned.class: "false (0)"
- smiles.entry: "CN1CC[C@H](N(c2cc(C#CC(C)(C)C)sc2C(=O)O)C(=O)[C@H]2CC[C@H](C)CC2)C1=O"
  test.system: "Hepatitis C virus"
  assigned.class: "true (1)"
- smiles.entry: "CN1CCCC[C@@H](N(c2cc(C#CC(C)(C)C)sc2C(=O)O)C(=O)[C@H]2CC[C@H](C)CC2)C1=O"
  test.system: "Hepatitis C virus"
  assigned.class: "false (0)"
- smiles.entry: "CN1CC[C@@H](N(c2cc(C#CC(C)(C)C)sc2C(=O)O)C(=O)[C@H]2CC[C@H](C)CC2)C1=O"
  test.system: "Hepatitis C virus"
  assigned.class: "false (0)"
- smiles.entry: "CN1CCC[C@H](N(c2cc(C#CC(C)(C)C)sc2C(=O)O)C(=O)[C@H]2CC[C@H](C)CC2)C1=O"
  test.system: "Hepatitis C virus"
  assigned.class: "true (1)"
- smiles.entry: "CN1CCC[C@@H](N(c2cc(C#CC(C)(C)C)sc2C(=O)O)C(=O)[C@H]2CC[C@H](C)CC2)C1=O"
  test.system: "Hepatitis C virus"
  assigned.class: "false (0)"
- smiles.entry: "CN1CCCC[C@H](N(c2cc(C#CC(C)(C)C)sc2C(=O)O)C(=O)[C@H]2CC[C@H](C)CC2)C1=O"
  test.system: "Hepatitis C virus"
  assigned.class: "true (1)"
- smiles.entry: "CC(C)(C)C#Cc1cc(N(CC(=O)N2CCOCC2)C(=O)[C@H]2CC[C@H](C)CC2)c(C(=O)O)s1"
  test.system: "Hepatitis C virus"
  assigned.class: "false (0)"
